target: KRAS G12V (Homo sapiens (Human), UniProt P01116+P62937, G12V); assay: Ras-Raf (BRAF RBD) disruption / FRET / MOA assay, KRAS G12V; assay type: biochemical; conditions: read-out: IC50* KRAS G12V FRET data
Sequence (P01116-2 other isoform, or with tags, fused parts or gaps G12V, one chain of several): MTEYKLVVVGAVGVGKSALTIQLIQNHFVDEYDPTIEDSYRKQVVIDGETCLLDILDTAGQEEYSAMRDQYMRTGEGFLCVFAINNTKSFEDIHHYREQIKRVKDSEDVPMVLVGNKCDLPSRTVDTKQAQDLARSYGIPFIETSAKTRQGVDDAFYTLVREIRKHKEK
The entries below are paired with their reported IC50.

C=CC(=O)N(C)[C@@H]1CCN(C(=O)N(C)[C@H](C(=O)N[C@H]2Cc3nc(cs3)-c3ccc4c(c3)c(c(-c3cccnc3[C@H](C)OC)n4CC)CC(C)(C)COC(=O)[C@@H]3CCCN(N3)C2=O)C(C)C)C1 (atropisomer, axis not shown): 100 to 1000 nM
CO[C@@H](C)c1ncccc1-c1c2c3cc(ccc3n1CC(F)(F)F)-c1csc(n1)C[C@H](NC(=O)[C@H](C(C)C)N(C)C(=O)N1C[C@@H]3OCCN(C(=O)/C=C/CN(C)C)[C@@H]3C1)C(=O)N1CCC[C@H](N1)C(=O)OCC(C)(C)C2 (atropisomer, axis not shown): 1000 to 10000 nM
C=CC(=O)N1CCC2(CC1)CCN(C(=O)N(C)[C@H](C(=O)N[C@H]1Cc3nc(cs3)-c3ccc4c(c3)c(c(-c3cccnc3[C@H](C)OC)n4CC)CC(C)(C)COC(=O)[C@@H]3CCCN(N3)C1=O)C(C)C)CC2 (atropisomer, axis not shown): 100 to 1000 nM
CO[C@@H](C)c1ncccc1-c1c2c3cc(ccc3n1CC(F)(F)F)-c1cccc(c1)C[C@H](NC(=O)[C@@H](COC1CN(C(=O)C#CC3(C)OCCO3)C1)C(C)C)C(=O)N1CCC[C@H](N1)C(=O)OCC(C)(C)C2 (atropisomer, axis not shown): 1000 to 10000 nM

Continue with the next molecule.
// query What value of measured IC50 is listed for C=CC(=O)N1C[C@@H](C)N(C(=O)N(C)[C@H](C(=O)N[C@H]2Cc3nc(cs3)-c3ccc4c(c3)c(c(-c3cccnc3[C@H](C)OC)n4CC)CC(C)(C)COC(=O)[C@@H]3CCCN(N3)C2=O)C(C)C)C[C@H]1C (atropisomer, axis not shown) ?
// result 100 to 1000 nM

----------
The entries below are paired with their reported IC50.
target: K-Ras G13C (Homo sapiens (Human), UniProt P01116+P62937, G13C); experiment: Ras-Raf (BRAF RBD) disruption / FRET / MOA assay, KRAS G13C; type: biochemical; conditions: KRAS G13C; Ras-Raf disruption/FRET/MOA assay; read-out: IC50* KRAS G13C FRET data
Sequence (P01116-2 other isoform, or with tags, fused parts or gaps G13C, one chain of several): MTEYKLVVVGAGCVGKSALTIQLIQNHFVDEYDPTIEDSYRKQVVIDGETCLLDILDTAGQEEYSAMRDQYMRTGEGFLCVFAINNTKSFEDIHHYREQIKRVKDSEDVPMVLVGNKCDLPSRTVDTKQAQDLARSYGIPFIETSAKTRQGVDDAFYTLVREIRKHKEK

The cases that follow already have their IC50 on record.
CCn1c(-c2cccnc2[C@H](C)OC)c2c3cc(ccc31)-c1cc(cc(C(F)F)c1)C[C@H](NC(=O)[C@H](C(C)C)N(C)C(=O)[C@H]1CCN(C(=O)C#CC(C)(C)N3CCC3)C1)C(=O)N1CCC[C@H](N1)C(=O)OCC(C)(C)C2 (atropisomer, axis not shown): 0.1 to 1 µM
C=CC(=O)N1CC[C@H](C(=O)N(C)[C@H](C(=O)N[C@H]2Cc3cccc(c3)-c3ccc4c(c3)c(c(-c3cc(C5=CCN(C)CC5)cnc3[C@H](C)OC)n4CC)CC(C)(C)COC(=O)[C@@H]3CCCN(N3)C2=O)C(C)C)C1 (atropisomer, axis not shown) [Example A513]: 0.1 to 1 µM
CCn1c(-c2cccnc2[C@H](C)OC)c2c3cc(ccc31)-c1csc(n1)C[C@H](NC(=O)[C@H](C(C)C)N1CC[C@@]3(CCN(C(=O)C#CC(C)(C)N(C)C)C3)C1=O)C(=O)N1CCC[C@H](N1)C(=O)OCC(C)(C)C2 (single isomer, unassigned): 0.1 to 1 µM
C=CC(=O)N1CC2(CCN(C(=O)N(C)[C@H](C(=O)N[C@H]3Cc4cccc(c4)-c4ccc5c(c4)c(c(-c4cccnc4[C@H](C)OC)n5CC)CC(C)(C)COC(=O)[C@@H]4CCCN(N4)C3=O)C(C)C)CC2)C1 (atropisomer, axis not shown): 0.01 to 0.1 µM

// query Form field - read-out: IC50; system: K-Ras G13C (Homo sapiens (Human), UniProt P01116+P62937, G13C); submitted item: CCn1c(-c2cccnc2[C@H](C)OC)c2c3cc(ccc31)-c1cccc(c1)C[C@H](NC(=O)[C@H](C(C)C)N1CC[C@]3(CCN(C(=O)C#C[C@H]4COCCN4C4COC4)C3)C1=O)C(=O)N1CCC[C@H](N1)C(=O)OCC(C)(C)C2 (atropisomer, axis not shown)
// result 1 to 10 µM

// query Same for `C=CC(=O)N1CC[C@H](C(=O)N(C)[C@H](C(=O)N[C@H]2Cc3cccc(c3)-c3ccc4c(c3)c(c(-c3cnn(C5CCN(C)CC5)c3[C@H](C)OC)n4CC)CC(C)(C)COC(=O)[C@@H]3CCCN(N3)C2=O)C(C)C)C1`
// result > 10 µM

----------
molecular target: NRAS WT (Homo sapiens (Human), UniProt P01111+P62937); assay: Ras-Raf (BRAF RBD) disruption / FRET / MOA assay, NRAS WT; type: biochemical; settings: read-out: IC50* NRAS WT FRET data
Sequence (P01111 whole entry): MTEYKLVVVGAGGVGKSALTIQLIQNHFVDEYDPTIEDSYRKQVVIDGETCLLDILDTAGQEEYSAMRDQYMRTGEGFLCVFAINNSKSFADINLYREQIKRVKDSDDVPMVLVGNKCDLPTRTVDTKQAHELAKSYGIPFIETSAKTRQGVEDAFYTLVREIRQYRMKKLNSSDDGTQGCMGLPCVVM
Sequence (P62937 whole entry): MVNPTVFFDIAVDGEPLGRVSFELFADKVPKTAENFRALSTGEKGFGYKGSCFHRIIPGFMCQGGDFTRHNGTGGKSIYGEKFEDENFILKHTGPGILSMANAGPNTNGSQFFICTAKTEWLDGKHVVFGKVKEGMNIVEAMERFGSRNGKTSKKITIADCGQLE
pIC50: −log10 of the molar value.
metric_name: pIC50

The cases that follow already have their pIC50 on record.
C=CC(=O)N1CCO[C@H]2CN(C(=O)N(C)[C@H](C(=O)N[C@H]3C[C@H]4CN(CCO4)c4ccc5c(c4)c(c(-c4cccnc4[C@H](C)OC)n5CC)CC(C)(C)COC(=O)[C@@H]4CCCN(N4)C3=O)C(C)C)C[C@H]21 [Example A562]: 5.00 to 6.00
C=CC(=O)N1CCO[C@H]2CN(C(=O)N(C)[C@H](C(=O)N[C@H]3CC4=NN=C(O4)c4ccc5c(c4)c(c(-c4cccnc4[C@H](C)OC)n5CC(F)(F)F)CC(C)(C)COC(=O)[C@@H]4CCCN(N4)C3=O)C(C)C)C[C@H]21 (atropisomer, axis not shown) [Example A576]: 5.00 to 6.00

Continue with the next molecule.
// query What value of measured pIC50 is listed for C=CC(=O)N1C[C@@H]2CN(C(=O)N(C)[C@H](C(=O)N[C@H]3Cc4nc(cs4)-c4ccc5c(c4)c(c(-c4cccnc4[C@H](C)OC)n5CC)CC(C)(C)COC(=O)[C@@H]4CCCN(N4)C3=O)C(C)C)[C@@H]2C1 (atropisomer, axis not shown) [Example A561] ?
// result 5.00 to 6.00

----------
target: NRAS WT (Homo sapiens (Human), UniProt P01111+P62937); assay: Ras-Raf (BRAF RBD) disruption / FRET / MOA assay, NRAS WT; type: biochemical; details: read-out: IC50* NRAS WT FRET data
pIC50: −log10 of the molar value.
metric_name: pIC50

C=CC(=O)N1C[C@H](C)N(C(=O)N(C)[C@H](C(=O)N[C@H]2Cc3nc(cs3)-c3ccc4c(c3)c(c(-c3cccnc3[C@H](C)OC)n4CC)CC(C)(C)COC(=O)[C@@H]3CCCN(N3)C2=O)C(C)C)C[C@@H]1C (atropisomer, axis not shown): 7.00 to 8.00
CCn1c(-c2cccnc2[C@H](C)OC)c2c3cc(ccc31)-c1cccc(c1)C[C@H](NC(=O)[C@H](C(C)C)N(C)C(=O)[C@H]1CCN(C(=O)C#CC(C)(C)N(C)C)C1)C(=O)N1CCC[C@H](N1)C(=O)OCC(C)(C)C2 (atropisomer, axis not shown): 5.00 to 6.00
CCn1c(-c2cccnc2[C@H](C)OC)c2c3cc(ccc31)-c1cccc(c1)C[C@H](NC(=O)[C@H](C(C)C)N(C)C(=O)N1CCC13CN(C(=O)C#CC(C)(C)N(C)C)C3)C(=O)N1CCC[C@H](N1)C(=O)OCC(C)(C)C2: 6.00 to 7.00

// query What value of measured pIC50 is listed for CCn1c(-c2cccnc2[C@H](C)OC)c2c3cc(ccc31)-c1cccc(c1)C[C@H](NC(=O)[C@@H](CO[C@@H]1CCN(C(=O)C#CC(C)(C)N(C)C)C1)C(C)C)C(=O)N1CCC[C@H](N1)C(=O)OCC(C)(C)C2 (atropisomer, axis not shown) ?
// result 5.00 to 6.00

----------
The entries below are paired with their reported IC50.
biological target: KRAS G12S (Homo sapiens (Human), UniProt P01116+P62937, G12S); assay: Ras-Raf (BRAF RBD) disruption / FRET / MOA assay, KRAS G12S; type: biochemical; conditions: Ras-Raf disruption/FRET/MOA assay; class symbols; read-out: KRAS G12S FRET data IC50
Sequence (P01116-2 other isoform, or with tags, fused parts or gaps G12S): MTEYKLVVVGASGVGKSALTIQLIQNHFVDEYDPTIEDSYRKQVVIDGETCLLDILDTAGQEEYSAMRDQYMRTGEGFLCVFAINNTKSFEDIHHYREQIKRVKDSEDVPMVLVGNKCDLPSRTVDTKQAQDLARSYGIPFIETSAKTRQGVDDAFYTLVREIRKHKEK
Sequence (P62937 whole entry): as the sequence (P62937 whole entry) above

// query What value of measured IC50 is listed for CCn1c(-c2cccnc2[C@H](C)OC)c2c3cc(ccc31)-c1csc(n1)C[C@H](NC(=O)[C@H](C(C)C)N(C)C(=O)N1C[C@H]3CN(C(=O)C#CC(C)(C)N(C)C)CC[C@H]31)C(=O)N1CCC[C@H](N1)C(=O)OCC(C)(C)C2 (atropisomer, axis not shown) ?
// result 100 to 1000 nM

// query Same for `C=CC(=O)N1CCOC2(CCN(C(=O)N(C)[C@H](C(=O)N[C@H]3CN4CCC=C(C4)c4ccc5c(c4)c(c(-c4cccnc4[C@H](C)OC)n5CC)CC(C)(C)COC(=O)[C@@H]4CCCN(N4)C3=O)C(C)C)CC2)C1`
// result 1000 to 10000 nM

// query Same for C=CC(=O)N1CC[C@H](C(=O)N(C)[C@H](C(=O)N[C@H]2Cc3cccc(c3)-c3ccc4c(c3)c(c(-c3cccnc3[C@H](C)OC)n4CC)CC(C)(C)COC(=O)[C@@H]3CCCN(N3)C2=O)C2COC2)C1 (atropisomer, axis not shown)
// result 1000 to 10000 nM
